Below is a list of entries, each paired with its recorded protein stability index value.
B1: ZNF649 (parent)
chain: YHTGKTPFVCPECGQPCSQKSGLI

variants of: B1; experiment: protein stability index of a GFP-peptide fusion (GPS, HEK-293T) (PSI 1-6); higher = more stable; conditions: c terminus: a fixed tail appended;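 note: lentivirally expressed fusions sorted by FACS into six bins by GFP to DsRed ratio, PSI derived from sequencing read proportions per bin multiplied by bin number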
Give the value as a plain number.

Q: Please report the recorded protein stability index for YHTGKTPFVCPECGQPCYQKSGLI .
Result: 2.4

Q: YHTGKTPFVCPECGQPCSQKSGDI ?
Result: 2.12

Q: What do we get for YHTGKTPFVCPSCGQPCSQKSGLI ?
Result: 2.11

Q: Would you kindly repeat that for YHTGKTPVVCPECGQPCSQKSGLI ?
Result: 1.78

Q: // repeat for YHTGKTPFVCPECGQPCSQKSGLP and report
Result: 1.54

Q: Similarly, YHTGKTPFVCPECGQGCSQKSGLI ?
Result: 2.99

Q: Field entry: YHTGKTPFVCPECGQPCSQVSGLI
Result: 1.43

Q: And for YHTGKTPFVCPECGQPCSQKKGLI ?
Result: 1.4

Q: Proceed to YHTGKTSFVCPECGQPCSQKSGLI
Result: 1.6

Q: How about YHTGKTPFVCPECWQPCSQKSGLI ?
Result: 1.61

Q: Queued: YHTGKTPFVCPECGQPCSQKIGLI
Result: 1.67

Q: Also EHTGKTPFVCPECGQPCSQKSGLI ?
Result: 3.71

Q: Do the same for YHTGKTPFVYPECGQPCSQKSGLI please
Result: 2.29

Q: What do you have for YHTGKPPFVCPECGQPCSQKSGLI ?
Result: 2.19

Q: Queued: YHTGKTPFVCPECGQPHSQKSGLI
Result: 1.73

Q: Please give the result for YHTGKTPFVCQECGQPCSQKSGLI too.
Result: 1.57

Q: Continue with YHTGKTPFVCPECGQPCSQKSGLC
Result: 3.08

Q: Repeat for the following variant: YHTGKTPFVCPECGQPCSQKYGLI
Result: 2.56

Q: Now give it for YHTGKTPFVCPECGQPCSQKCGLI too.
Result: 2.32

Q: Now the same for YHTGKTPFVCPECGQPCSQKSGKI
Result: 2.56

Q: Please answer likewise for YHTGKTPAVCPECGQPCSQKSGLI
Result: 1.84

Q: Next variant up: YHDGKTPFVCPECGQPCSQKSGLI
Result: 2.68

Q: Try this variant next: YHTGPTPFVCPECGQPCSQKSGLI
Result: 2.66

Q: Similarly, YHTGKTPFVCPECGQPCSTKSGLI ?
Result: 2.81

Q: YHTGKTPFVCPECGQPCGQKSGLI , same question.
Result: 1.43

Q: Next variant: YHTGKTPFACPECGQPCSQKSGLI
Result: 3.38

Hello, the source for this data is the supplement of paper PMC10567573, in case you need it.
